experiment: yeast display, Sf9 membrane polyspecificity reagent, FACS + sequencing; frameworks hold sequencing errors
QUANTITY NAME: polyreactivity (PSR sort gate)

Some solved cases for reference:
QVQLVESGGGLVQAGGSLRLSCAATGLTIWHYVMGWYRQAPGKERELVATISSSGGSTFYADSVKGRFTISRDNAKNTVYLQMNSLKPEDTAVYYCNADQYSWRWRRKHDYWGQGTQVTVSS high polyreactivity
QVQLVESGGGLVQAGGSLRLSCAASGSIFVRNAMGWYRQAPGKERELVAAISGSGGRTYYADSVKGRFTISRDIAKNTVYLQMNSLKPEDTAVYYCARVPSGQLEYDYWGQGTQVTVSS high polyreactivity
QVQLVESGGGLVQAGGSLRLSCAASGSTFYYYAMGWYRPAPGKERELVAAINYNGGSTHYADSVKGRFTISRDNAKNTVYLQMNSLKPEDTAVYYCAAKYRLSYTHGYWGQGTQVTVSS low polyreactivity
QFQLVESGGGLVQAGGSLRLSCAASGRIFNGNAMGLYRQAPGKERELVAASTSDGSTYADSVKGRFTISRDNAKNTVYLQMNSLKPEDTAVYYCNRDGYTNSRGYEFYYWGQGTQVTVSS low polyreactivity
QVQLVESGGGLVQAGGSLRLSCAASGLIFGYYAMGCYRQAPGKERELVAAISSSGSTYYADSVKGRFTISCDNEKNTVYLQMNSLKPEDTAVYYCNVDISSYGGDYWGQGTQVTVSS low polyreactivity

*Q* Indicate the recorded polyreactivity (PSR sort gate) value for this sequence: `QVQLVESGGGLVQAGGSLRLSCAASGSIFGTNAMGWYRQAPGKERELVAAINSGGSTNYADSVKGRFTISRDNAKNTVYLQMNSLKPEDTAVYYCAADEGLWSPSRNAYDYDYWGQGTQVSVSS`
*A* low polyreactivity

*Q* State its polyreactivity (PSR sort gate): `QVQLVESGGGLVQAGGSLRLSCAASGSIFPYNAMGWYRQAPGKERELVATISSGGSTNYADSVKGRFTISRDNAKNTVYLQMNSLKPEDTAVYYCAADVIVFYYAPNYWVDIEYGYWGQGTQVTVSS`
*A* low polyreactivity

*Q* Using known records, supply polyreactivity (PSR sort gate) for `QVQLVESGGGLVQAGGSLRLSCAASGSIFVSEYVMGWYRQAPGKERELVARIRWSSGSTYYADSVKGRFTISRDNAKNTVYLQMNSLKPEDTAVYYCAKATSSFYHYRYDYWGQGTQVTVSS`
*A* low polyreactivity

*Q* Identify measured polyreactivity (PSR sort gate) corresponding to `HVQLVESGGGLVQAGGSLRLSCAASGPTFVTNAKGWYRQAPGKERELVAAISRSGGHTYYADSVKGRFTISRDIAKNTVYLQMNSLKPEDTAVYYCAKNRGPRTLYDYWGQGTQVTVSS`
*A* high polyreactivity

*Q* State, in one line, measured polyreactivity (PSR sort gate) of `QVQLVESGGGLVQAGGSLRLSCAASGRTFLLNAMGWYRQAPGKERELVAAISRGGSTYYADSVKGRFTISRDNAKNTVYLQMNSLKPEDTAVYYCAARFWISHTHWDAGDYWGQGTQVTVSS`
*A* low polyreactivity

*Q* Kindly indicate its recorded polyreactivity (PSR sort gate). Item: `EVHLLESGGGLVQAGGSLRLSSAASGFTFACNAMGWYRQAPGKERELVAALTWGDNSTYYADSVKGRFTISRDNAKNTVYLQMNSLKQEDTAVYYCGARVTHWYYLFGYDYWGQGTQVTVSS`
*A* low polyreactivity

# credit: the nanobody polyreactivity screen of Harvey et al. (2022)
